// MIC collected for Staphylococcus epidermidis ATCC 12228
The reply should contain only the number, in µg/mL.

Would you please look over these solved cases?
{"columns": ["compound", "scale_unit", "value_reported"],
 "data": [
  ["C[C@@H]1CN(c2c(F)c(N)c3c(=O)c(C(=O)O)cn(C4CC4)c3c2F)C[C@H](C)N1 [Spafloxacin, reference compound]", "µg/mL", 0.2],
  ["Nc1c(F)c(N2CCNC(=O)CC2)c(F)c2c1c(=O)c(C(=O)O)cn2C1CC1", "µg/mL", 0.05]
]}

Prompt: Looking for the measured MIC of `Nc1c(F)c(N2CCNC(=O)CC2)c(Cl)c2c1c(=O)c(C(=O)O)cn2C1CC1` , can you help?
Completion: 0.024

Prompt: Give its MIC value. Item: `CN1CCN(c2c(F)c(N)c3c(=O)c(C(=O)O)cn(C4CC4)c3c2F)CCC1=O`
Completion: 0.1

====

The following molecules each carry a recorded MIC for Escherichia coli K-12.
The figure you give is taken to be in µg/mL; do not add the unit.

Example cases with answers are listed next.
{"columns": ["molecule", "scale_unit", "MIC"],
 "data": [
  ["Nc1c(F)c(N2CCNC(=O)CC2)c(Cl)c2c1c(=O)c(C(=O)O)cn2C1CC1", "µg/mL", 0.1],
  ["C[C@@H]1CN(c2c(F)c(N)c3c(=O)c(C(=O)O)cn(C4CC4)c3c2F)C[C@H](C)N1 [Spafloxacin, reference compound]", "µg/mL", 0.012],
  ["CN1CCN(c2c(F)c(N)c3c(=O)c(C(=O)O)cn(C4CC4)c3c2F)CCC1=O", "µg/mL", 0.1]
]}

Prompt: Give MIC (Escherichia coli K-12) of the following molecule: `Nc1c(F)c(N2CCNC(=O)CC2)c(F)c2c1c(=O)c(C(=O)O)cn2C1CC1`
Completion: 0.05

====

Parameter MIC, tested on Proteus vulgaris OXK, listed per item.

Example entries begin here.
{"columns": ["compound", "MIC"],
 "data": [
  ["Nc1c(F)c(N2CCNC(=O)CC2)c(Cl)c2c1c(=O)c(C(=O)O)cn2C1CC1 [1-10]", "0.2 mg/L"],
  ["C[C@@H]1CN(c2c(F)c(N)c3c(=O)c(C(=O)O)cn(C4CC4)c3c2F)C[C@H](C)N1 [Spafloxacin, reference compound]", "0.05 mg/L"],
  ["CN1CCN(c2c(F)c(N)c3c(=O)c(C(=O)O)cn(C4CC4)c3c2F)CCC1=O [1-8]", "0.1 mg/L"]
]}

From here, focus on the item given below.
Prompt: For the compound Nc1c(F)c(N2CCNC(=O)CC2)c(F)c2c1c(=O)c(C(=O)O)cn2C1CC1 [Compound No. 1-2] , what MIC is on record?
Completion: 0.05 mg/L

====

Each record here notes measured MIC.
System: Pseudomonas aeruginosa IFO 12582
Assay: Antibacterial test (MIC), The Japan Chemotherapeutic Association method
Type: cell-based
Settings: IFO12582, Mueller Hinton Medium, 10^6 /ml, 37° C., determined after 24 hours
Dear colleague, please return just the value in µg/mL, with no unit written.

Study these solved cases before continuing.
{"columns": ["compound", "scale_unit", "MIC"],
 "data": [
  ["C[C@@H]1CN(c2c(F)c(N)c3c(=O)c(C(=O)O)cn(C4CC4)c3c2F)C[C@H](C)N1 [Spafloxacin, reference compound]", "µg/mL", 1.56],
  ["CN1CCN(c2c(F)c(N)c3c(=O)c(C(=O)O)cn(C4CC4)c3c2F)CCC1=O", "µg/mL", 6.25],
  ["Nc1c(F)c(N2CCNC(=O)CC2)c(Cl)c2c1c(=O)c(C(=O)O)cn2C1CC1", "µg/mL", 3.13]
]}

Here is the next item to consider.
Prompt: So what's the measured MIC for this one? `Nc1c(F)c(N2CCNC(=O)CC2)c(F)c2c1c(=O)c(C(=O)O)cn2C1CC1`
Completion: 3.13

====

Test system: Staphylococcus aureus Smith
Overview of recorded MIC for various molecules
Write the quantity with the unit trailing the number.

Prompt: Notebook entry, Staphylococcus aureus Smith assay: MIC of C[C@@H]1CN(c2c(F)c(N)c3c(=O)c(C(=O)O)cn(C4CC4)c3c2F)C[C@H](C)N1 [Spafloxacin, reference compound] = ?
Completion: 50 ng/mL

Prompt: Request body: readout MIC, system Staphylococcus aureus Smith, query `Nc1c(F)c(N2CCNC(=O)CC2)c(Cl)c2c1c(=O)c(C(=O)O)cn2C1CC1` . Return the value.
Completion: 6 ng/mL

Prompt: Quick check: MIC on Staphylococcus aureus Smith, item `Nc1c(F)c(N2CCNC(=O)CC2)c(F)c2c1c(=O)c(C(=O)O)cn2C1CC1` ?
Completion: 6 ng/mL

Prompt: Notebook: pull reported MIC for Staphylococcus aureus Smith, entry `CN1CCN(c2c(F)c(N)c3c(=O)c(C(=O)O)cn(C4CC4)c3c2F)CCC1=O`
Completion: 12 ng/mL

====

Recorded MIC by entry
System: Staphylococcus aureus FDA 209P
Your answer is read as µg/mL, so omit the unit and give the number.

Prompt: Which MIC value belongs to Nc1c(F)c(N2CCNC(=O)CC2)c(Cl)c2c1c(=O)c(C(=O)O)cn2C1CC1 [1-10] ?
Completion: 0.012

Prompt: Query: MIC; subject: Nc1c(F)c(N2CCNC(=O)CC2)c(F)c2c1c(=O)c(C(=O)O)cn2C1CC1 [Compound No. 1-2]
Completion: 0.012

Prompt: # get_value(readout='MIC', item= C[C@@H]1CN(c2c(F)c(N)c3c(=O)c(C(=O)O)cn(C4CC4)c3c2F)C[C@H](C)N1 [Spafloxacin, reference compound] )
Completion: 0.024

Prompt: Value lookup for MIC; key = CN1CCN(c2c(F)c(N)c3c(=O)c(C(=O)O)cn(C4CC4)c3c2F)CCC1=O [1-8]
Completion: 0.006

====

Tested on: Micrococcus lysodeikticus IFO 3333
Reported MIC values are given for each entry in this list.
Please state the value followed by its unit.

Here's what some known entries look like.
{"columns": ["compound", "MIC"],
 "data": [
  ["CN1CCN(c2c(F)c(N)c3c(=O)c(C(=O)O)cn(C4CC4)c3c2F)CCC1=O [1-8]", "0.1 µg/mL"],
  ["Nc1c(F)c(N2CCNC(=O)CC2)c(F)c2c1c(=O)c(C(=O)O)cn2C1CC1 [Compound No. 1-2]", "0.05 µg/mL"],
  ["C[C@@H]1CN(c2c(F)c(N)c3c(=O)c(C(=O)O)cn(C4CC4)c3c2F)C[C@H](C)N1 [Spafloxacin, reference compound]", "0.39 µg/mL"]
]}

Now let's try a different one.
Prompt: Given Nc1c(F)c(N2CCNC(=O)CC2)c(Cl)c2c1c(=O)c(C(=O)O)cn2C1CC1 [1-10] , state its recorded MIC.
Completion: 0.05 µg/mL

====

System: Sarcina lutea ATCC 9341
value_type: MIC (µg/mL)
Provide the reading as a plain figure in µg/mL.

Solved entries (count: 3):
{"columns": ["molecule", "system_under_test", "MIC (µg/mL)"],
 "data": [
  ["CN1CCN(c2c(F)c(N)c3c(=O)c(C(=O)O)cn(C4CC4)c3c2F)CCC1=O [1-8]", "Sarcina lutea ATCC 9341", 0.39],
  ["Nc1c(F)c(N2CCNC(=O)CC2)c(Cl)c2c1c(=O)c(C(=O)O)cn2C1CC1 [1-10]", "Sarcina lutea ATCC 9341", 0.2],
  ["C[C@@H]1CN(c2c(F)c(N)c3c(=O)c(C(=O)O)cn(C4CC4)c3c2F)C[C@H](C)N1 [Spafloxacin, reference compound]", "Sarcina lutea ATCC 9341", 1.56]
]}

Shift focus to the following entry.
Prompt: Report MIC for Nc1c(F)c(N2CCNC(=O)CC2)c(F)c2c1c(=O)c(C(=O)O)cn2C1CC1 [Compound No. 1-2] tested on Sarcina lutea ATCC 9341.
Completion: 0.39

====

Below, each entry is listed with its recorded MIC.
Test system: Bacillus subtilis ATCC 6633
Assay: Antibacterial test (MIC), The Japan Chemotherapeutic Association method
Format: cell-based
Settings: ATCC6633, Mueller Hinton Medium, 10^6 /ml, 37° C., determined after 24 hours

{"columns": ["molecule", "MIC"],
 "data": [
  ["Nc1c(F)c(N2CCNC(=O)CC2)c(F)c2c1c(=O)c(C(=O)O)cn2C1CC1 [Compound No. 1-2]", "6 ng/mL"],
  ["Nc1c(F)c(N2CCNC(=O)CC2)c(Cl)c2c1c(=O)c(C(=O)O)cn2C1CC1 [1-10]", "12 ng/mL"],
  ["C[C@@H]1CN(c2c(F)c(N)c3c(=O)c(C(=O)O)cn(C4CC4)c3c2F)C[C@H](C)N1 [Spafloxacin, reference compound]", "24 ng/mL"]
]}

Prompt: Entry CN1CCN(c2c(F)c(N)c3c(=O)c(C(=O)O)cn(C4CC4)c3c2F)CCC1=O [1-8] has what MIC?
Completion: 6 ng/mL

The values you see were collected from patent US5430028A.
